The following compounds are shown together with reported pKa values.
Conditions: acidic group
VALUE_TYPE: pKa

* CCOC(=O)Nc1nnc(-c2ccccc2)s1 | 8.2
* O=C1CC(c2ccccc2)NC(=O)N1 (stereo not drawn) | 11.2
* O=C1CNC(=O)N1 | 9.12

###

Conditions: acidic group
Label True when pKa >= 5; otherwise False.

• O=C(O)C[C@]1(O)C[C@H]2C=C[C@@H]1C2 = False
• O=C1/C(=N\O)C=C(S(=O)(=O)[O-])c2cn[nH]c21 = True
• C[NH+](C)CCc1ccc(O)cc1 = True
• CCC(CC)C(=O)O = False
• CNC(=O)/C=C\C(=O)O = False
• O=C([O-])/C=C/c1ccccc1O = True
• N#CC(C#N)=NNc1cccc(Cl)c1 = True
• Cc1ccc(/C=N/O)cc1 = True
• S=C(Nc1ccc(Cl)cc1)c1cccc(Br)c1 = True
• COc1ccc(O)cc1C = True
• O=C(O)C(CO)[NH2+]Cc1cc(Cl)ccc1O (stereo unspecified) = False
• C[N+](C)(C)Cc1ccc(O)cc1 = True
• CC(C)c1ccc2c(c1)CC[C@H]1[C@](C)(C(=O)O)CCC[C@]21C = True
• COc1ccc(O)c(=O)cc1 = True
• C[N+]1(CC(=O)O)CCCCC1 = False

###

Conditions: acidic group
VALUE_TYPE: pKa

• C[n+]1ccc(C(=O)c2ccccc2)cc1 = 12.2
• Cc1nc2c(O)ccc(O)c2n1C = 9.75
• O=C1NC(=O)C2(CCOc3ccc(F)cc32)N1 (centres undefined) = 8.3
• Cn1cnc2c(N=O)c(O)ccc21 = 6.76
• CC([NH3+])c1nnn[nH]1 (centres undefined) = 2.63
• O/N=C/c1ccncc1 = 9.91
• C[N+](C)(C)CC(O)CC(=O)O (centres undefined) = 3.8
• O=P([O-])(O)c1cn2c([nH+]1)[C@@H](O)[C@H](O)[C@@H](O)[C@@H]2CO = 4.84
• NC(=O)[C@H]1CC(=O)N[C@@H]1C(=O)O = 3
• Cc1cccc2ccc(O)cc12 = 9.42
• Cc1nc(N)c2cn[nH]c2n1 = 11.3
• CC[NH+](CC)Cc1c(O)c(Cl)cc(Cl)c1Cl = 5.13
• O=C(O)Cc1[nH]c2ccccc2[nH+]1 = 0.2
• CC(=O)CN=O = 8.4
• Nc1cccc(N)c1O = 10.5
• CC(C)(O)C(=O)O = 4.04
• Nc1ccc([N+](=O)[O-])c(B(O)O)c1 = 10
• CSc1nc(N)c2[nH]cnc2n1 = 10.2
• Nc1ccc(S(=O)(=O)Nc2ncccn2)cc1 = 6.42
• SCc1c[nH]cn1 = 9.54
• C[N+]1(CCC(=O)O)CCCCC1 = 3.43
• ONc1ncnc2nc[nH]c12 = 9.83
• CCCCc1c(C)nn(-c2ccccc2)c1O = 11.4
• Oc1ccccc1-c1nnn[nH]1 = 4.36

###

Settings: acidic group
# Lookup of reported pKa keyed by entry
VALUE_TYPE: pKa

- Cc1ccnc(NS(=O)(=O)c2ccc(Cl)cc2)n1: 5.37
- [NH3+][C@@H](Cc1ccccc1)C(=O)O: 2.21
- C[n+]1ccccc1S: -1.42
- O[n+]1c2ccccc2nc2ccccc21: 1.12
- O=c1oc2cc(O)ccc2cc1-c1nc2ccccc2o1: 6.84
- CCN(CC)C(=S)NC(=O)c1ccc(C)cc1: 8.77
- Cc1nn(-c2ccccc2)c(O)c1Cc1ccccc1: 11.8
- CC[NH+]1CCC[C@@H]1CNC(=O)c1c(O)c(Br)cc(Br)c1OC: 5.88
- NS(=O)(=O)c1ccc(P(=O)([O-])[O-])cc1: 10
- Cc1cc(C)nc(NS(=O)(=O)c2ccc(O)cc2)n1: 7.52
- COc1c(C)cccc1C(=O)O: 3.84
- COc1cccc(/C=N/O)c1: 10.6
- Cn1cnc2[nH]c(=O)[nH]c(=S)c21: 6.8
- C[n+]1cccc2cccc(O)c21: 6.81

###

pKa: recorded values
Details: basic group
VALUE_TYPE: pKa

• CCCN(CCO)CC(C)O (configuration not stated) = 8.9
• CCOCCNc1ccc(C)cc1 = 4.6
• CN1CC(O[Si](C)(C)C)C1 = 9.1
• NCCc1c[nH]cn1 = 9.87
• O=C(c1ccccc1)n1cnc2ccccc21 = 1.8
• C(=C/c1nnnn1-c1ccccc1)/c1ccccc1 = -2.81
• C=CCN(CC=C)CC=C = 8.31
• Nc1ccncc1C(=O)[O-] = 9.1
• O=[N+]([O-])c1ccc([O-])c(CN2CCOCC2)c1 = 7.92
• OCNc1nc(NCO)nc(NCO)n1 = 4.05
• Cc1ccccc1/C(=N\CCC[NH+](C)C)c1cccc2ccccc12 = 4.14
• Cc1cnc2c(cc(C)c3c(C)ccnc32)c1C = 6.45
• Cc1cc([C@@H](N)CO)c(O)c([C@@H](N)CO)c1 = 9
• CN(C)Cc1ccccc1O = 8.6
• c1ccc(N=P(c2ccccc2)(c2ccccc2)c2ccccc2)cc1 = -0.92
• OC[C@H](O)[C@H](O)[C@@H](O)[C@H](O)c1nc2ccccc2[nH]1 = 5.28
• S=C1NC(=S)C(c2ccccc2)N1 (configuration not stated) = -3.16
• CCN(CC)CCC(=O)Nc1c(C)cccc1C = 8.96
• Cc1ccc(CN)cc1N = 9.77
• CC(=O)N(N)C1CCN(C)CC1 = 8.7
• [Se-]c1ncnc2nc[nH]c12 = 7.33
• CCCCCCCCCCCCCCCCCCNCCCCCCCCCCCCCCCCCC = 11

###

Details: acidic group
# pKa listing for each entry below
VALUE_TYPE: pKa

- CCCC(=O)NO: 9.48
- CC#CCC(=O)O: 3.6
- NC(=O)c1ccccc1C(=O)O: 3.75

###

Details: acidic group
// Not satisfied strictly below 6 in pKa; Satisfied otherwise

• CCOC(=S)S = Not satisfied
• C[NH+](C)c1ccc(/C=C/c2cc[n+](O)cc2)cc1 = Not satisfied
• CC(=O)/N=c1\sc(S(N)(=O)=O)nn1C = Satisfied
• Sc1cccc(Cl)c1 = Not satisfied
• Cc1ccc(C(=O)O)[nH]1 = Not satisfied
• Cn1cnc2c(O)[nH+]cnc21 = Not satisfied
• O=C(/C=N/O)c1ccccc1 = Satisfied
• Cc1cccc(=O)c(O)c1 = Satisfied
• O=C(O)C(CO)[NH2+]Cc1cc([N+](=O)[O-])ccc1O (centres undefined) = Not satisfied
• CC(=O)CC(N)=O = Satisfied
• CC1=CC(=O)CC(=O)O1 = Not satisfied
• C=C(C)C1=C(O)CC(C)CC1 (centres undefined) = Satisfied
• CC(C)CCOc1ccccc1/C=C\C(=O)O = Not satisfied
• Oc1ccc(Cl)c2ccccc12 = Satisfied
• c1ccc([P+](c2ccccc2)(c2ccccc2)C2c3ccccc3-c3ccccc32)cc1 = Satisfied
• O=C(NO)c1ccc([N+](=O)[O-])cc1 = Satisfied
• CC(C#N)(CC(=O)O)c1ccccc1 (centres undefined) = Not satisfied
• COc1ccc2c(c1)[nH]c1c(C)nccc12 = Satisfied
• O=CC(c1ccccc1)c1ccccc1 = Satisfied
• O=C(O)c1cccc2cc3ccccc3cc12 = Not satisfied
• CNc1ccc(S(=O)(=O)Nc2nc(C)cs2)cc1 = Satisfied
• OB(O)Cc1ccccc1 = Satisfied
• O=C1CCC(Cl)C1=O (centres undefined) = Satisfied

###

Reported values of pKa for individual entries
Conditions: acidic group
VALUE_TYPE: pKa

- O=C(O)C[NH+](CC(=O)O)Cc1cc(Cl)cc(C[NH+](CC(=O)O)CC(=O)O)c1O: 2
- O=C([O-])c1ccccc1S: 7.6
- CC(=O)[C@@H]1C[C@H](C(=O)O)C1(C)C: 4.63

###

Settings: acidic group
VALUE_TYPE: pKa

* [NH3+]CCc1nnn[nH]1 | 3.99
* CCOC(=O)c1ccc(O)cc1 | 9.34
* O=C(CC(=O)c1ccccc1)Nc1ccccc1[N+](=O)[O-] | 9.54
* O=[N+]([O-])Cc1cccc(Cl)c1 | 6.63
* CCc1cc(C(C)C)c(O)cc1C | 10.9
* Nc1ccncn1 | 18.4
* O=c1cc(-c2ccccc2)oc2cc(O)ccc12 | 7.39

###

Conditions: basic group
# thresholds on pKa define classes: small value = under 5, mid value = from 5 up to 8, large value = 8 and over

• Nc1ccccc1-c1nc2ccccc2s1 = small value
• CC(=O)OCC1CN2CCC1CC2 (stereo unspecified) = large value
• CC1=CSC2=NCCN12 = large value
• CSc1ccc(N)c([N+](=O)[O-])c1 = small value
• C[C@@H]1C[NH2+][C@@H](C)CN1 = mid value
• NC(=O)C(c1ccccc1)c1ccccn1 (stereo unspecified) = small value
• CC(=O)OCCc1c[nH]cn1 = mid value
• [NH3+]c1ccc(-c2ncc(-c3ccc(Br)cc3)o2)cc1 = small value
• COCCCCNc1ccccc1 = small value
• C=C1CC1C[C@H](N)C(=O)[O-] (stereo partly specified) = large value
• CCOC(=O)c1cnc(N(C)C)s1 = small value
• CCN(CC)CC1CO1 (stereo unspecified) = large value
• CC(C)n1cnc2ccccc21 = mid value
• OCc1nc2ccccc2[nH]1 = small value
